tested_target: Inhibitor of nuclear factor kappa-B kinase subunit beta (Homo sapiens)
Sequence (O14920 whole entry): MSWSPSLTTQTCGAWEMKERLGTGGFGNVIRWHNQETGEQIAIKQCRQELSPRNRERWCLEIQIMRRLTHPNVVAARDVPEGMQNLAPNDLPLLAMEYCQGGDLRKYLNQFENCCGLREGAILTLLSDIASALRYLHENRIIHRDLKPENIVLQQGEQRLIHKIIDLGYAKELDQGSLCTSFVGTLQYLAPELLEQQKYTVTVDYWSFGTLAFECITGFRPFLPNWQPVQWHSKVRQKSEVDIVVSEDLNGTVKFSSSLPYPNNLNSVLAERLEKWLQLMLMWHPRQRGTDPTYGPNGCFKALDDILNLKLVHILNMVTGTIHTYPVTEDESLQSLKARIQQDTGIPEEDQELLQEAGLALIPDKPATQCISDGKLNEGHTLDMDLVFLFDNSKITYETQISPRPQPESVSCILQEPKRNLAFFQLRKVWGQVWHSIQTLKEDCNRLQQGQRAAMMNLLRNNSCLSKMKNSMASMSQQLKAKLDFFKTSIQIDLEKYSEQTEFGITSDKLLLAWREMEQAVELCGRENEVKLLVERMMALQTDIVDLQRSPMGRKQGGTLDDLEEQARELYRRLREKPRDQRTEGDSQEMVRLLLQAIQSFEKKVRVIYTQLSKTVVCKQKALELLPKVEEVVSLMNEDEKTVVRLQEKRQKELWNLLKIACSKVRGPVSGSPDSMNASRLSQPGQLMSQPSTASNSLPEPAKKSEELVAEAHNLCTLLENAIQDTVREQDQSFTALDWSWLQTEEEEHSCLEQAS
assay_text: Inhibition of recombinant full length human IKKbeta expressed in baculovirus infected sf9 insect cells using biotinylated IkBalpha as substrate after 60 mins by DELFIA
attribute_measured: Ki

# structure_string, Ki
data = [
    ("Nc1nc(-c2ccc(S(N)(=O)=O)cc2)c2cc[nH]c2n1", "0.61 µM"),
]

# input molecule: N#Cc1c[nH]c2nc(N)nc(-c3ccccc3O)c12 ; wanted: its Ki
> 30 µM

How about CN1CCN(c2nc(N)nc3[nH]cc(C#N)c23)CC1 ?
> 30 µM

How about N#Cc1c[nH]c2nc(N)nc(-c3ccc(C(N)=O)cc3)c12 ?
> 30 µM

How about Cc1ccc(NS(=O)(=O)c2ccc(-c3nc(N)nc4[nH]cc(C#N)c34)cc2)cc1 ?
1.4 µM

How about Nc1nc(NC2CCCCC2)c2cc[nH]c2n1 ?
> 30 µM

How about N#Cc1c[nH]c2ncnc(-c3ccc(S(N)(=O)=O)cc3)c12 ?
> 30 µM

How about N#Cc1c[nH]c2nc(N)nc(Nc3ccccc3)c12 ?
> 30 µM
